Data origin, for the record: paper PMC8021118

system: CD4+ T cells in PBMC from HLA-DRB1*04:01+ subjects; experiment: In vitro expansion of peptide-specific CD4+ T cells from PBMC and HLA class II tetramer staining; type: cell-based, human; details: RA subjects with positive in vitro response (>0.1% of CD4+ T cells tetramer+) of total tested; 10 μg/mL peptide, 14 days; n = 14, TNC44 and TNC59 n = 6
Where a SMILES comes first, the peptide text is derived from it. [ ]: non-standard residue; d: D form. Cit = NC(=O)NCCC[C@H](N)C(=O)O
Below, each entry is listed alongside its reported Responders (% in RA).
State the answer as a number, implicitly in %.

// known answers, use as guide
[[record]]
compound = "CC[C@H](C)[C@H](NC(=O)[C@H](CCCNC(N)=O)NC(=O)[C@H](Cc1ccccc1)NC(=O)[C@H](CO)NC(=O)[C@H](CCC(=O)O)NC(=O)[C@@H](N)C(C)C)C(=O)N[C@H](C(=O)N[C@@H](Cc1ccc(O)cc1)C(=O)N[C@H](C(=O)N1CCC[C@H]1C(=O)N[C@H](C(=O)N[C@H](C(=O)NCC(=O)NCC(=O)N[C@H](C(=O)O)[C@@H](C)O)[C@@H](C)O)[C@@H](C)CC)C(C)C)[C@@H](C)O [TNC50] (H-VESF[Cit]ITYVPITGGT-OH)"
observed_measurement = 50

[[record]]
compound = "CC(C)C[C@H](NC(=O)[C@H](CCCNC(N)=O)NC(=O)[C@H](Cc1ccc(O)cc1)NC(=O)[C@H](CCCNC(N)=O)NC(=O)[C@H](CC(=O)O)NC(=O)[C@@H](N)Cc1ccccc1)C(=O)N[C@@H](CC(N)=O)C(=O)N[C@@H](Cc1ccc(O)cc1)C(=O)N[C@@H](CO)C(=O)N[C@@H](CC(C)C)C(=O)N1CCC[C@H]1C(=O)N[C@H](C(=O)NCC(=O)N[C@@H](CCC(N)=O)C(=O)N[C@@H](Cc1c[nH]c2ccccc12)C(=O)O)[C@@H](C)O [TNC22] (H-FD[Cit]Y[Cit]LNYSLPTGQW-OH)"
observed_measurement = 46

[[record]]
compound = "CSCC[C@H](NC(=O)[C@@H](N)CO)C(=O)N[C@@H](C)C(=O)N[C@@H](Cc1ccc(O)cc1)C(=O)N[C@@H](Cc1c[nH]cn1)C(=O)N[C@@H](CC(N)=O)C(=O)NCC(=O)N[C@@H](CCCNC(N)=O)C(=O)N[C@@H](CO)C(=O)N[C@@H](Cc1ccccc1)C(=O)N[C@@H](CO)C(=O)N[C@H](C(=O)N[C@@H](Cc1ccccc1)C(=O)N[C@@H](CC(=O)O)C(=O)N[C@@H](CCCCN)C(=O)O)[C@@H](C)O [TNC59] (H-SMAYHNG[Cit]SFSTFDK-OH)"
observed_measurement = 33


Next compound, please.
According to the records, this compound CC[C@H](C)[C@H](NC(=O)[C@H](C)NC(=O)[C@@H]1CCCN1C(=O)[C@H](CCC(N)=O)NC(=O)[C@H](Cc1c[nH]c2ccccc12)NC(=O)[C@H](CCCNC(N)=O)NC(=O)[C@H](C)NC(=O)[C@@H](N)CC(C)C)C(=O)N[C@@H](C)C(=O)N[C@H](C(=O)N[C@H](C(=O)N[C@@H](CC(=O)O)C(=O)N[C@@H](CO)C(=O)N[C@@H](Cc1ccc(O)cc1)C(=O)N[C@H](C(=O)O)C(C)C)C(C)C)[C@@H](C)O [TNC52] (H-LA[Cit]WQPAIATVDSYV-OH) displays Responders (% in RA) of 33
